Tested on: ICR (CD-1) mice
Test: In vivo toxicity in mice (SC, IN, IP routes)
Conditions: SC, 3 doses (1hr, 12hr, 24hr); head doses: RN7-IN10, RN7-IN8 20 mg/kg; RN7-IN9, RN7-IN6 10 mg/kg; day 7; mean±SD, 4 mice
readout name: Mean corpuscular haemoglobin, MCH (pg)
Please give a number only; it is taken to be in pg.

# annotated cases, reported Mean corpuscular haemoglobin, MCH shown
FLGGLIKWPWWPWRR-NH2 [RN7-IN8, hybrid peptide of ranalexin (residues 1-7) and indolicidin (residues 6-13)] | 17.32
FLGGLIKWWPWRR-NH2 [RN7-IN6, hybrid peptide of ranalexin (residues 1-7) and indolicidin (residues 8-13)] | 16.85

INPUT: What measured Mean corpuscular haemoglobin, MCH goes with FLGGLIKWKWPWWPWRR-NH2 [RN7-IN10, hybrid peptide of ranalexin (residues 1-7) and indolicidin (residues 4-13)] ?
OUTPUT: 17.08

INPUT: Input FLGGLIKKWPWWPWRR-NH2 [RN7-IN9, hybrid peptide of ranalexin (residues 1-7) and indolicidin (residues 5-13)]
OUTPUT: 17.1

----------
Form field: Monocytes (one value per entry).
System: ICR (CD-1) mice
Assay: In vivo toxicity in mice (SC, IN, IP routes)
Conditions: IN, 3 doses (1hr, 12hr, 24hr); head doses: RN7-IN10, RN7-IN8 20 mg/kg; RN7-IN9, RN7-IN6 10 mg/kg; day 7; mean±SD, 4 mice
Mention the unit after the number when you answer.

FLGGLIKWWPWRR-NH2 [RN7-IN6, hybrid peptide of ranalexin (residues 1-7) and indolicidin (residues 8-13)] | 2.7±0.57%

INPUT: Identify the measured Monocytes of FLGGLIKWKWPWWPWRR-NH2 [RN7-IN10, hybrid peptide of ranalexin (residues 1-7) and indolicidin (residues 4-13)] for ICR (CD-1) mice.
OUTPUT: 2.2±0.37%

INPUT: Input FLGGLIKKWPWWPWRR-NH2 [RN7-IN9, hybrid peptide of ranalexin (residues 1-7) and indolicidin (residues 5-13)]
OUTPUT: 2.52±0.27%

INPUT: Input FLGGLIKWPWWPWRR-NH2 [RN7-IN8, hybrid peptide of ranalexin (residues 1-7) and indolicidin (residues 6-13)]
OUTPUT: 3.22±0.68%

----------
Tested on: ICR (CD-1) mice
Assay: In vivo toxicity in mice (SC, IN, IP routes)
Design: unit not given here
Settings: serum; IN, 3 doses (1hr, 12hr, 24hr); head doses: RN7-IN10, RN7-IN8 20 mg/kg; RN7-IN9, RN7-IN6 10 mg/kg; day 7; mean±SD, 4 mice
Form field: Aspartate aminotransferase, AST (one value per entry).
No unit in the answer, please; the number alone is enough.

# annotated cases, reported Aspartate aminotransferase, AST shown
FLGGLIKWPWWPWRR-NH2 [RN7-IN8, hybrid peptide of ranalexin (residues 1-7) and indolicidin (residues 6-13)] | 176.3
FLGGLIKKWPWWPWRR-NH2 [RN7-IN9, hybrid peptide of ranalexin (residues 1-7) and indolicidin (residues 5-13)] | 141.2

INPUT: What measured Aspartate aminotransferase, AST goes with FLGGLIKWWPWRR-NH2 [RN7-IN6, hybrid peptide of ranalexin (residues 1-7) and indolicidin (residues 8-13)] ?
OUTPUT: 140

INPUT: Input FLGGLIKWKWPWWPWRR-NH2 [RN7-IN10, hybrid peptide of ranalexin (residues 1-7) and indolicidin (residues 4-13)]
OUTPUT: 172

----------
Tested on: ICR (CD-1) mice
Experiment: In vivo toxicity in mice (SC, IN, IP routes)
Set-up: unit not given here
Conditions: serum; SC, 3 doses (1hr, 12hr, 24hr); head doses: RN7-IN10, RN7-IN8 20 mg/kg; RN7-IN9, RN7-IN6 10 mg/kg; day 7; mean±SD, 4 mice
readout name: Alanine transaminase, ALT
No unit in the answer, please; the number alone is enough.

# annotated cases, reported Alanine transaminase, ALT shown
FLGGLIKKWPWWPWRR-NH2 [RN7-IN9, hybrid peptide of ranalexin (residues 1-7) and indolicidin (residues 5-13)] | 43.17
FLGGLIKWWPWRR-NH2 [RN7-IN6, hybrid peptide of ranalexin (residues 1-7) and indolicidin (residues 8-13)] | 43.32
FLGGLIKWKWPWWPWRR-NH2 [RN7-IN10, hybrid peptide of ranalexin (residues 1-7) and indolicidin (residues 4-13)] | 51.25

Now look at this entry.
INPUT: What measured Alanine transaminase, ALT goes with FLGGLIKWPWWPWRR-NH2 [RN7-IN8, hybrid peptide of ranalexin (residues 1-7) and indolicidin (residues 6-13)] ?
OUTPUT: 50

----------
Tested on: ICR (CD-1) mice
Assay: In vivo toxicity in mice (SC, IN, IP routes)
Details: IN, 3 doses (1hr, 12hr, 24hr); head doses: RN7-IN10, RN7-IN8 20 mg/kg; RN7-IN9, RN7-IN6 10 mg/kg; day 7; mean±SD, 4 mice
Form field: Eosinophil (one value per entry).
Please give a number only; it is taken to be in %.

FLGGLIKWPWWPWRR-NH2 [RN7-IN8, hybrid peptide of ranalexin (residues 1-7) and indolicidin (residues 6-13)] | 4.3
FLGGLIKWWPWRR-NH2 [RN7-IN6, hybrid peptide of ranalexin (residues 1-7) and indolicidin (residues 8-13)] | 3.5
FLGGLIKKWPWWPWRR-NH2 [RN7-IN9, hybrid peptide of ranalexin (residues 1-7) and indolicidin (residues 5-13)] | 3.2

INPUT: What measured Eosinophil goes with FLGGLIKWKWPWWPWRR-NH2 [RN7-IN10, hybrid peptide of ranalexin (residues 1-7) and indolicidin (residues 4-13)] ?
OUTPUT: 2.7

----------
Form field: platelet Counts, PLT (one value per entry).
System: ICR (CD-1) mice
Assay: In vivo toxicity in mice (SC, IN, IP routes)
Conditions: IN, 3 doses (1hr, 12hr, 24hr); head doses: RN7-IN10, RN7-IN8 20 mg/kg; RN7-IN9, RN7-IN6 10 mg/kg; day 7; mean±SD, 4 mice

# annotated cases, reported platelet Counts, PLT shown
FLGGLIKWWPWRR-NH2 [RN7-IN6, hybrid peptide of ranalexin (residues 1-7) and indolicidin (residues 8-13)] | 597.66±123.23 10^3/mm^3
FLGGLIKWPWWPWRR-NH2 [RN7-IN8, hybrid peptide of ranalexin (residues 1-7) and indolicidin (residues 6-13)] | 612±130.37 10^3/mm^3
FLGGLIKKWPWWPWRR-NH2 [RN7-IN9, hybrid peptide of ranalexin (residues 1-7) and indolicidin (residues 5-13)] | 656.75±76.9 10^3/mm^3

Now look at this entry.
INPUT: What measured platelet Counts, PLT goes with FLGGLIKWKWPWWPWRR-NH2 [RN7-IN10, hybrid peptide of ranalexin (residues 1-7) and indolicidin (residues 4-13)] ?
OUTPUT: 619.5±100.42 10^3/mm^3

----------
System: ICR (CD-1) mice
Assay: In vivo toxicity in mice (SC, IN, IP routes)
Details: SC, 3 doses (1hr, 12hr, 24hr); head doses: RN7-IN10, RN7-IN8 20 mg/kg; RN7-IN9, RN7-IN6 10 mg/kg; day 7; mean±SD, 4 mice
Form field: Mean corpuscular volume, MCV (one value per entry).

# annotated cases, reported Mean corpuscular volume, MCV shown
FLGGLIKWPWWPWRR-NH2 [RN7-IN8, hybrid peptide of ranalexin (residues 1-7) and indolicidin (residues 6-13)] | 50.25±0.95 µm^3
FLGGLIKWKWPWWPWRR-NH2 [RN7-IN10, hybrid peptide of ranalexin (residues 1-7) and indolicidin (residues 4-13)] | 50±2.16 µm^3
FLGGLIKWWPWRR-NH2 [RN7-IN6, hybrid peptide of ranalexin (residues 1-7) and indolicidin (residues 8-13)] | 50±1.82 µm^3

INPUT: What measured Mean corpuscular volume, MCV goes with FLGGLIKKWPWWPWRR-NH2 [RN7-IN9, hybrid peptide of ranalexin (residues 1-7) and indolicidin (residues 5-13)] ?
OUTPUT: 51±1.82 µm^3

----------
System: ICR (CD-1) mice
Assay: In vivo toxicity in mice (SC, IN, IP routes)
Settings: SC, 3 doses (1hr, 12hr, 24hr); head doses: RN7-IN10, RN7-IN8 20 mg/kg; RN7-IN9, RN7-IN6 10 mg/kg; day 7; mean±SD, 4 mice
readout name: Lymphocytes (%)
Please give a number only; it is taken to be in %.

# annotated cases, reported Lymphocytes shown
FLGGLIKWPWWPWRR-NH2 [RN7-IN8, hybrid peptide of ranalexin (residues 1-7) and indolicidin (residues 6-13)] | 43.85
FLGGLIKWWPWRR-NH2 [RN7-IN6, hybrid peptide of ranalexin (residues 1-7) and indolicidin (residues 8-13)] | 51.85
FLGGLIKKWPWWPWRR-NH2 [RN7-IN9, hybrid peptide of ranalexin (residues 1-7) and indolicidin (residues 5-13)] | 46.47

INPUT: What measured Lymphocytes goes with FLGGLIKWKWPWWPWRR-NH2 [RN7-IN10, hybrid peptide of ranalexin (residues 1-7) and indolicidin (residues 4-13)] ?
OUTPUT: 52.2
